- Organism: Rattus norvegicus
- measurementDescription: Open TG-GATES - Regimen: Single
- Assay type: toxicity, organism-based, Sprague-Dawley
- Design: regimen Single, gender Male, age 6 weeks
- conditionDescription: in vivo, po, 0 mg/kg, 24 h, tissue Blood, route gavage, dose level Control

compound	Ht, %
CCOC(=O)CCC(=O)O[C@H]1[C@H](O[C@@H]2[C@@H](C)[C@H](O[C@H]3C[C@@](C)(OC)[C@@H](O)[C@H](C)O3)[C@@H](C)C(=O)O[C@H](CC)[C@@](C)(O)[C@H](O)[C@@H](C)C(=O)[C@H](C)C[C@@]2(C)O)O[C@H](C)C[C@@H]1N(C)C [ERYTHROMYCIN ETHYLSUCCINATE]	40.3
CN1C(=O)CN=C(c2ccccc2)c2cc(Cl)ccc21 [DIAZEPAM]	41
CC/C(=C(\c1ccccc1)c1ccc(OCCN(C)C)cc1)c1ccccc1 [TAMOXIFEN]	38.9
COC1=CC(=O)C[C@@H](C)[C@]12Oc1c(Cl)c(OC)cc(OC)c1C2=O [GRISEOFULVIN]	39.3
Cc1ccc(C)c(OCCCC(C)(C)C(=O)O)c1 [GEMFIBROZIL]	38.9
O=C(CCCN1CCC(O)(c2ccc(Cl)cc2)CC1)c1ccc(F)cc1 [HALOPERIDOL]	39.3
CC(C)OC(=O)C(C)(C)Oc1ccc(C(=O)c2ccc(Cl)cc2)cc1 [FENOFIBRATE]	39.1
CCOc1ccc(NC(=O)CC(C)O)cc1 (stereo unspecified) [BUCETIN]	40.5
C[C@@H]1C[C@H]2[C@@H]3CCC4=CC(=O)C=C[C@]4(C)[C@@]3(F)[C@@H](O)C[C@]2(C)[C@@]1(O)C(=O)CO [DEXAMETHASONE]	40.1
CCCNC(=O)NS(=O)(=O)c1ccc(Cl)cc1 [CHLORPROPAMIDE]	40.6
CN(C)CCN(Cc1cccs1)c1ccccn1	39.1

###

- Species: Rattus norvegicus
- measurementDescription: Open TG-GATES - Regimen: Single
- Type: toxicity, organism-based, Sprague-Dawley
- Set-up: regimen Single, gender Male, age 6 weeks
- conditionDescription: in vivo, po, 0 mg/kg, 3 h, tissue Plasma, route gavage, dose level Control
# TP annotations
endpoint: TP

NNC(=O)c1ccncc1 5.5 g/dL
Cc1ccc(C)c(OCCCC(C)(C)C(=O)O)c1 5.6 g/dL
CN(C)CCN(Cc1cccs1)c1ccccn1 5.3 g/dL
O=C(CCCN1CCC(O)(c2ccc(Cl)cc2)CC1)c1ccc(F)cc1 5.6 g/dL

###

- Species on record: Rattus norvegicus
- measurementDescription: Open TG-GATES - Regimen: Single
- Type: toxicity, organism-based, Sprague-Dawley
- Design: regimen Single, gender Male, age 6 weeks
- conditionDescription: in vivo, po, 0 mg/kg, 24 h, tissue Plasma, route gavage, dose level Control

compound	TC (mg/dL)
COc1cc2c(c(OC)c1OC)-c1ccc(OC)c(=O)cc1[C@@H](NC(C)=O)CC2 [COLCHICINE]	84.8
O=C(CCCN1CCC(O)(c2ccc(Cl)cc2)CC1)c1ccc(F)cc1 [HALOPERIDOL]	87.2
CCOC(=O)CCC(=O)O[C@H]1[C@H](O[C@@H]2[C@@H](C)[C@H](O[C@H]3C[C@@](C)(OC)[C@@H](O)[C@H](C)O3)[C@@H](C)C(=O)O[C@H](CC)[C@@](C)(O)[C@H](O)[C@@H](C)C(=O)[C@H](C)C[C@@]2(C)O)O[C@H](C)C[C@@H]1N(C)C [ERYTHROMYCIN ETHYLSUCCINATE]	81.4
Cc1ccc(C)c(OCCCC(C)(C)C(=O)O)c1 [GEMFIBROZIL]	78
C[C@@H]1C[C@H]2[C@@H]3CCC4=CC(=O)C=C[C@]4(C)[C@@]3(F)[C@@H](O)C[C@]2(C)[C@@]1(O)C(=O)CO [DEXAMETHASONE]	95.4
CCOc1ccc(NC(=O)CC(C)O)cc1 (configuration not stated) [BUCETIN]	76.2
CN(C)CCN(Cc1cccs1)c1ccccn1	77.8

Hey, just so you know, these numbers are from ChEMBL document CHEMBL3885861.
